# testedTarget: HIV-integrase (Human immunodeficiency virus type 1 group M subtype B, UniProt P12497)
# Construct: Recombinant integrase (0.26 ng) was incubated with the beads
# procedureText: HIV-Integrase Inhibition Activity (SPA bead integration assay with P33 labeled target DNA)
# Type: biochemical
# cond: recombinant integrase, class symbols; read-out: in vitro activity
readoutName: IC50

Memo: CO[C@@H]1C[C@@H](C(=O)NC23CCC(CC2)Cn2c3nc(C(=O)NCc3ccc(F)cc3)c(O)c2=O)N(S(C)(=O)=O)C1 [Example 274] , reported IC50: < 10 nM

Memo: Cc1cc(C(=O)N2CCN(C(=O)C(=O)NC34CCC(CC3)Cn3c4nc(C(=O)NCc4ccc(F)cc4)c(O)c3=O)CC2)no1 [Example 139] , reported IC50: < 10 nM

Memo: CC1(C)[C@@H]2CC[C@@]1(C)[C@@H](N)c1nc(C(=O)NCc3ccc(F)cc3)c(O)c(=O)n1C2 [Example 182] , reported IC50: > 100 nM

Memo: O=C(NCc1ccc(F)cc1)c1nc2n(c(=O)c1O)CC1CCC2(NC(=O)[C@H]2CCCN2)CC1 [Example 252] , reported IC50: 10 to 100 nM

Memo: O=C(NC12CCC(CC1)Cn1c2nc(C(=O)NCc2ccc(F)cc2)c(O)c1=O)C(=O)N1CCN(CCO)CC1 [Example 72] , reported IC50: < 10 nM

Memo: CN(C)C(=O)C(=O)NC12CCC(CCn3c1nc(C(=O)NCc1ccc(F)c(F)c1)c(O)c3=O)C2 (stereo not shown) [Example 214] , reported IC50: < 10 nM

Memo: Cc1cc(C(=O)NC23CCC(CC2)Cn2c3nc(C(=O)NCc3ccc(F)cc3)c(O)c2=O)no1 [Example 28] , reported IC50: < 10 nM

---

# testedTarget: HIV-integrase (Human immunodeficiency virus type 1 group M subtype B, UniProt P12497)
# Construct: Recombinant integrase (0.26 ng) was incubated with the beads
# procedureText: HIV-Integrase Inhibition Activity (SPA bead integration assay with P33 labeled target DNA)
# Type: biochemical
# cond: recombinant integrase, class symbols; read-out: in vitro activity
pIC50: −log10 of the molar value.
readoutName: pIC50

Memo: `Cn1nnc(C(=O)NC23CCC(CC2)Cn2c3nc(C(=O)NCc3ccc(F)cc3)c(O)c2=O)n1` , reported pIC50: > 8.00

Memo: `Cc1cc(C(=O)NC23CCC(CC2)Cn2c3nc(C(=O)NCc3ccc(F)cc3-n3ncnc3C)c(O)c2=O)no1` , reported pIC50: 7.00 to 8.00

Memo: CC(=O)NC12CCC(Cn3c1nc(C(=O)NCc1ccc(F)cc1)c(O)c3=O)C2 (stereo not shown) , reported pIC50: > 8.00

Memo: CC(=O)N1CCCC1C(=O)NC12CCC(CC1)Cn1c2nc(C(=O)NCc2ccc(F)cc2)c(O)c1=O (stereo in doubt) , reported pIC50: 7.00 to 8.00

Memo: `CC(C)N(C)C(=O)C(=O)NC12CCC(CC1)Cn1c2nc(C(=O)NCc2ccc(F)cc2)c(O)c1=O` , reported pIC50: > 8.00

Memo: `CS(=O)(=O)N1CCN(C(=O)NC23CCC(CC2)Cn2c3nc(C(=O)NCc3ccc(F)cc3)c(O)c2=O)C1=O` , reported pIC50: > 8.00

Memo: `CN(C)C(=O)C(=O)NC12CCC(CC1)Cn1c2nc(C(=O)NCc2ccc(F)c(C3CC3)c2)c(O)c1=O` , reported pIC50: > 8.00

Memo: `COc1cc(CNC(=O)c2nc3n(c(=O)c2O)CC2CCC3(N(C)C(=O)C(=O)N(C)C)CC2)ccc1F` , reported pIC50: > 8.00

Memo: `CN(C)C(=O)C(=O)NC12CCC(CC1)Cn1c2nc(C(=O)NCc2cccc(Cl)c2)c(O)c1=O` , reported pIC50: > 8.00

Memo: O=C(NC12CCC(CCn3c1nc(C(=O)NCc1ccc(F)cc1)c(O)c3=O)C2)C(=O)N1CC[C@@H](F)C1 (stereo partly shown) , reported pIC50: > 8.00

Memo: CN(C)C(=O)C(=O)NC12CCC(CCn3c1nc(C(=O)NCc1ccc(F)cc1)c(O)c3=O)C2 (stereo not shown) [Example 199] , reported pIC50: > 8.00

Memo: `CN(C)C(=O)C(=O)NC12CCC(CC1)Cn1c2nc(C(=O)NCc2csc(-c3ccccc3)n2)c(O)c1=O` , reported pIC50: > 8.00

Memo: `CO[C@H]1C[C@@H](C(=O)NC23CCC(CC2)Cn2c3nc(C(=O)NCc3ccc(F)c(C)c3)c(O)c2=O)N(C(=O)c2ccno2)C1` , reported pIC50: > 8.00

Memo: `Cc1cc(CNC(=O)c2nc3n(c(=O)c2O)CC2CCC3(NC(=O)C(C)(C)n3cc(C(=O)O)nn3)CC2)ccc1F` , reported pIC50: > 8.00

Memo: `COC(=O)c1cn(C(C)(C)C(=O)NC23CCC(CC2)Cn2c3nc(C(=O)NCc3ccc(F)c(C)c3)c(O)c2=O)nn1` , reported pIC50: > 8.00

Memo: `C[C@@H]1CN(C(=O)C(=O)NC23CCC(CC2)Cn2c3nc(C(=O)NCc3ccc(F)cc3)c(O)c2=O)C[C@H](C)O1` , reported pIC50: > 8.00

Memo: `CO[C@H]1C[C@@H](C(=O)NC23CCC(CC2)Cn2c3nc(C(=O)NCc3ccc(F)c(C)c3)c(O)c2=O)N(C(=O)c2cccn2C)C1` , reported pIC50: > 8.00

Memo: `O=C(CN1CCCC1=O)NC12CCC(CC1)Cn1c2nc(C(=O)NCc2ccc(F)cc2)c(O)c1=O` , reported pIC50: > 8.00

Memo: `O=C(NC12CCC(CC1)Cn1c2nc(C(=O)NCc2ccc(F)cc2)c(O)c1=O)C(=O)N1CCN(C(=O)c2ccccn2)CC1` , reported pIC50: > 8.00

Memo: `CN(C)C(=O)C(=O)N[C@H]1c2nc(C(=O)NCc3ccc(F)cc3)c(O)c(=O)n2C[C@H]2CC[C@]1(C)C2(C)C` , reported pIC50: 7.00 to 8.00

Memo: `O=C(NC12CCC(CC1)Cn1c2nc(C(=O)NCc2ccc(F)cc2)c(O)c1=O)C(=O)N1CCC[C@@H]1CO` , reported pIC50: > 8.00

Memo: `O=C(NCc1ccc(F)cc1)c1nc2n(c(=O)c1O)CC1CCC2(NC(=O)C2CCOCC2)CC1` , reported pIC50: > 8.00

Memo: `CN(C)C(=O)C(=O)N(C)C12CCC(CC1)Cn1c2nc(C(=O)NCc2ccc(F)cc2)c(O)c1=O` , reported pIC50: > 8.00

Memo: `CN(C)C(=O)C(=O)NC12CCC(CC1)Cn1c2nc(C(=O)NCc2ccc(F)c(Br)c2)c(O)c1=O` , reported pIC50: > 8.00

Memo: O=C(NC12CCC(CCn3c1nc(C(=O)NCc1ccc(F)cc1)c(O)c3=O)C2)C(=O)N1CC(F)(F)C1 (stereo not shown) , reported pIC50: > 8.00

Memo: `CN(C)C(=O)CNC12CCC(CC1)Cn1c2nc(C(=O)NCc2ccc(F)cc2)c(O)c1=O` , reported pIC50: 7.00 to 8.00

Memo: `CN(C)C(=O)C(=O)NC12CCC(CC1)Cn1c2nc(C(=O)NCc2ccc(F)cc2-c2nncn2C)c(O)c1=O` , reported pIC50: 7.00 to 8.00

Memo: `O=C(NCc1ccc(F)cc1)c1nc2n(c(=O)c1O)CC1CCC2(NC(=O)N2CCOCC2)CC1` , reported pIC50: 7.00 to 8.00
